tested system: human mGluR5a receptors (Homo sapiens (Human))
Sequence (P41594 other isoform, or with tags, fused parts or gaps): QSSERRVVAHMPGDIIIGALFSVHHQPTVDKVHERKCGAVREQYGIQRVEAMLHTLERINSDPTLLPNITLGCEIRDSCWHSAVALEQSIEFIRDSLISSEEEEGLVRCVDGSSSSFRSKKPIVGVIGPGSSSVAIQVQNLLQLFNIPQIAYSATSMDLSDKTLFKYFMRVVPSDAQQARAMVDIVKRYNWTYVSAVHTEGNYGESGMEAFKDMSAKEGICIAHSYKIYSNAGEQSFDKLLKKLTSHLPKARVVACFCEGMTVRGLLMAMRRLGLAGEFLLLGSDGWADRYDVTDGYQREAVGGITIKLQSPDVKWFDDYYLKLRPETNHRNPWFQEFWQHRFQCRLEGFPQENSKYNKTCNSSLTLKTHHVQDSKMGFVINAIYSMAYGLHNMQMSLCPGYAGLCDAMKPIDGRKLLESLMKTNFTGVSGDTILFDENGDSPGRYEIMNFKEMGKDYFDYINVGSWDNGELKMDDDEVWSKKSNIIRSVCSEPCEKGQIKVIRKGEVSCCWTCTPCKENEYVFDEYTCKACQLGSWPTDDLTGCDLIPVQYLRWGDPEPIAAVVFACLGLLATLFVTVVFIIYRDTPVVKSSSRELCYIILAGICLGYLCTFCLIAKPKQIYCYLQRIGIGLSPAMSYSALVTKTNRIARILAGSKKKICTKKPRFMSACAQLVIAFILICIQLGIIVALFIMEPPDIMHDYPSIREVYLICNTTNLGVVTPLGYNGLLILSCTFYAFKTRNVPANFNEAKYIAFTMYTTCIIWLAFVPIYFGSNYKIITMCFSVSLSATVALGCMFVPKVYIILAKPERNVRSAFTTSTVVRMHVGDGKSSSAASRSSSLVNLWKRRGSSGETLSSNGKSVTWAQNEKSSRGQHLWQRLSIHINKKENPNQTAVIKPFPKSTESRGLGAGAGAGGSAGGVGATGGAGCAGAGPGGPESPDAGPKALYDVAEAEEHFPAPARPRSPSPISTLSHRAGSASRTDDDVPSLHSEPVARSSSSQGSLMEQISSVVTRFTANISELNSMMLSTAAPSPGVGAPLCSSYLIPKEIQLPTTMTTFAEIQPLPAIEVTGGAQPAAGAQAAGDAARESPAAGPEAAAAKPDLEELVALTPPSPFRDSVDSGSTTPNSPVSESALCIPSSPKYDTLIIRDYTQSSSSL
assay comment: inhibition of glutamate-induced elevation of intracellular calcium in L(tk-) cells expressing human mGluR5a
study conditions: glutamate-induced intracellular calcium elevation, L(tk-) cells expressing human mGluR5a; read-out: mGluR5 IC50
pIC50: −log10 of the molar value.
measurement name: pIC50

# compound, pIC50
data = [
    ("O=C1CN=C(n2cnc(C3CC3)c2)C=C2c3cccc(-c4ccno4)c3CCN12 [Example 100]", 7.72),
]

a = COc1ccc(C2=NCC(=O)N3CCc4c(OC)cccc4C3=C2)cc1 [Example 17]
b = COc1cc(C2=NCC(=O)N3CCc4c(cccc4-c4cnccn4)C3=C2)ccn1 [Example 52]
Q. Kindly identify which of a and b has the larger recorded pIC50 value. Please identify the chosen entry by its label.
A. b
(b: 7.18, a: 5.66)

----------
tested system: human mGluR1 (Homo sapiens (Human), UniProt Q13255)
Sequence (Q13255 19-1194): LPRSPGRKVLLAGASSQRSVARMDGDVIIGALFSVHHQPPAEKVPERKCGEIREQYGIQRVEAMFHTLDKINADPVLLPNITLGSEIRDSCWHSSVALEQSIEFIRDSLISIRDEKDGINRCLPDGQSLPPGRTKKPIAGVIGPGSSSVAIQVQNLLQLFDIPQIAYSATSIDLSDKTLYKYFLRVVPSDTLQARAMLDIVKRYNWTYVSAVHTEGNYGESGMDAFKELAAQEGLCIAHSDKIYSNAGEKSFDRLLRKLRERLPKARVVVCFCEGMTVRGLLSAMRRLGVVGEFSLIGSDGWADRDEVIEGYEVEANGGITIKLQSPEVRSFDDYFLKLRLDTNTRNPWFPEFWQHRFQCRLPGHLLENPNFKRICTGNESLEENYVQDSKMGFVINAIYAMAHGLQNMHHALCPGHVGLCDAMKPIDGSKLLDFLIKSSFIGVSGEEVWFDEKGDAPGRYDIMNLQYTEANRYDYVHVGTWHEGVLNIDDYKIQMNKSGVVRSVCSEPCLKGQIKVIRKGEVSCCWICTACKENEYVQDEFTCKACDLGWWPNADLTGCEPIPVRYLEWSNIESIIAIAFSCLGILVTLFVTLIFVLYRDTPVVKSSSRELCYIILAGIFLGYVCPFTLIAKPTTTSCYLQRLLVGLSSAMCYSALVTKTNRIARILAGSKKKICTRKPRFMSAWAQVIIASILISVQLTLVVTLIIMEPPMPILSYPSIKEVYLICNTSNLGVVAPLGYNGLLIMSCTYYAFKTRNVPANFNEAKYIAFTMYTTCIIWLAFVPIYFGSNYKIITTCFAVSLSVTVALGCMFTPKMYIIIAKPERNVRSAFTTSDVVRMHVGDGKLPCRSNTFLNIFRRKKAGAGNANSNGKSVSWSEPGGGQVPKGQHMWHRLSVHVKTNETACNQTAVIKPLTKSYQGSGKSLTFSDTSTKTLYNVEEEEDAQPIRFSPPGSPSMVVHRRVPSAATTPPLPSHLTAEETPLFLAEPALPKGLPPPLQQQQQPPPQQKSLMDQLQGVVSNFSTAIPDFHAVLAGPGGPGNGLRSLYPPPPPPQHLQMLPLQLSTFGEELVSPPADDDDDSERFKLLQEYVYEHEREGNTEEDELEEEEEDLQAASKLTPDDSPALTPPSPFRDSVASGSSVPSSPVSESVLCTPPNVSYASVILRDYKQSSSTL
assay comment: mGluR1 antagonism, L-glutamate induced intracellular calcium increase (FLIPR) in CHO cells stably expressing human mGluR1
study conditions: L-glutamate induced intracellular calcium, CHO cells expressing human mGluR1, FLIPR
pIC50: −log10 of the molar value.
measurement name: pIC50

# annotated cases, reported pIC50 shown
# compound, pIC50
measured = [
    ("O=C1CN=C(n2cnc(C(F)F)c2)C=C2c3cccc(C4CC4)c3CCN12 [Example 99l]", 6.15),
    ("O=C1CN=C(n2cnc(C3CC3)c2)C=C2c3cccc(-c4cncc(F)n4)c3CCN12 [Example 141]", 6.40),
    ("COc1cccc2c1CCN1C(=O)CN=C(c3cccs3)C=C21 [Example 5]", 7.82),
]

I = O=C1CN=C(c2ccoc2)C=C2c3cccc(I)c3CCN12 [Example 34]
II = CC(C)n1cc(C2=NCC(=O)N3CCc4c(cccc4-n4cccn4)C3=C2)cn1 [Example 42]
Q. Kindly identify which of I and II has the larger recorded pIC50 value. Please identify the chosen entry by its label.
A. I

----------
tested system: human mGluR1 (Homo sapiens (Human), UniProt Q13255)
assay comment: mGluR1 antagonism, L-glutamate induced intracellular calcium increase (FLIPR) in CHO cells stably expressing human mGluR1
study conditions: L-glutamate induced intracellular calcium, CHO cells expressing human mGluR1, FLIPR
measurement name: IC50 (nM)

# annotated cases, reported IC50 shown
# compound, measurement name, unit tag, recorded measurement
data = [
    ("CCCc1cccc2c1CCN1C(=O)CN=C(n3cnc(C)c3)C=C21 [Example 90]", "IC50", "nM", 1500),
    ("COc1cccc(C2=NCC(=O)N3CCc4c(C(C)=O)cccc4C3=C2)c1 [Example 48]", "IC50", "nM", 2300),
    ("CCc1cc(C2=NCC(=O)N3CCc4c(OC)cccc4C3=C2)ccn1 [Example 10]", "IC50", "nM", 940),
    ("O=C1CN=C(n2cnc(C(F)(F)F)c2)C=C2c3cccc(I)c3CCN12 [Example 63]", "IC50", "nM", 3200),
]

I = COCc1ncn(C2=NCC(=O)N3CCc4c(cccc4C4CC4)C3=C2)n1 [Example 93]
II = COCCc1cn(C2=NCC(=O)N3CCc4c(cccc4-c4cscn4)C3=C2)cn1 [Example 76]
Q. Compare IC50: is it lower for I or for II ? Please identify the chosen entry by its label.
A. I
(I: 1500 nM, II: 4200 nM)

P = COCCc1cn(C2=NCC(=O)N3CCc4c(cccc4-c4nccs4)C3=C2)cn1 [Example 88h]
Q = O=C1CN=C(n2cnc(C(F)(F)F)c2)C=C2c3cccc(C4CC4)c3CCN12 [Example 123e]
Q. Kindly identify which of P and Q has the larger recorded IC50 value. Please identify the chosen entry by its label.
A. Q

----------
tested system: UniProt:Q13255
assay comment: mGluR1 antagonism, L-glutamate induced intracellular calcium increase (FLIPR) in CHO cells stably expressing human mGluR1
study conditions: L-glutamate induced intracellular calcium, CHO cells expressing human mGluR1, FLIPR
measurement name: IC50 (nM)

# molecule, IC50 [nM]
records = [
    ("O=C1CN=C(n2cnc(C3CC3)c2)C=C2c3cccc(-c4cnccc4F)c3CCN12 [Example 88k]", 5860),
    ("O=C1CN=C(n2cnc(C3CC3)n2)C=C2c3cccc(C4CC4)c3CCN12 [Example 123c]", 226),
    ("O=C1CN=C(n2cnc(C3CC3)c2)C=C2c3cccc(-c4cc[nH]n4)c3CCN12 [Example 99e]", 8260),
    ("O=C1CN=C(n2cnc(C3CC3)c2)C=C2c3cccc(-c4cnc(F)cn4)c3CCN12", 1100),
    ("COc1cccc2c1CCN1C(=O)CN=C(c3ccc(C)o3)C=C21", 210),
    ("CC(=O)c1cccc2c1CCN1C(=O)CN=C(n3cnc(C4CCC4)c3)C=C21", 660),
    ("COc1cccc2c1CCN1C(=O)CN=C(c3cccc(O)n3)C=C21", 8900),
    ("O=C1CN=C(n2cnc(C3CC3)c2)C=C2c3cccc(-c4cnccn4)c3CCN12 [Example 88f]", 1950),
    ("O=C1CN=C(n2cnc(C3CC3)c2)C=C2c3cccc(-c4ccc(F)nc4)c3CCN12", 10000),
    ("CCOCc1cn(C2=NCC(=O)N3CCc4c(cccc4-c4nccs4)C3=C2)cn1 [Example 88j]", 1860),
]

A = Cc1ncc(-c2cccc3c2CCN2C(=O)CN=C(n4cnc(C5CC5)c4)C=C32)s1 [Example 88e]
B = O=C1CN=C(n2cnc(C3CC3)c2)C=C2c3cccc(-c4ccnc(F)c4)c3CCN12 [Example 99g]
Q. Compare IC50: is it lower for A or for B ? Please identify the chosen entry by its label.
A. A

P = C=C(C)c1cccc2c1CCN1C(=O)CN=C(n3cnc(COC)c3)C=C21
Q = COCc1cn(C2=NCC(=O)N3CCc4c(C5=CCCC5)cccc4C3=C2)cn1
R = O=C1CN=C(n2cnc(C(O)C3CC3)c2)C=C2c3cccc(C4CC4)c3CCN12 (stereo not shown)
S = O=C1CN=C(c2ccco2)C=C2c3cccc(-c4ccncc4)c3CCN12
Q. Sort low-to-high on IC50, please. The response must list the labels following the requested ordering.
A. P, Q, R, S
(P: 490 nM, Q: 890 nM, R: 3310 nM, S: 4800 nM)

1 = C=C(C)c1cccc2c1CCN1C(=O)CN=C(n3cnc([C@H](C)OC)c3)C=C21
2 = O=C1CN=C(n2cnc(C3(O)CC3)c2)C=C2c3cccc(C4CC4)c3CCN12
Q. Kindly identify which of 1 and 2 has the larger recorded IC50 value. Please identify the chosen entry by its label.
A. 1
(1: 2600 nM, 2: 1200 nM)

----------
tested system: human mGluR1 (Homo sapiens (Human))
assay comment: mGluR1 antagonism, L-glutamate induced intracellular calcium increase (FLIPR) in CHO cells stably expressing human mGluR1
Format: cell-based
study conditions: CHO
measurement name: inhibition at 10 µM (%)

# annotated cases, reported inhibition at 10 µM shown
# compound, tested system, recorded measurement
data = [
    ("COc1cccc2c1CCN1C(=O)CN=C(c3cc[nH]c(=O)c3)C=C21", "human mGluR1 (Homo sapiens (Human))", 15),
    ("Cc1cc(-c2cccc3c2CCN2C(=O)CN=C(c4ccn(C)n4)C=C32)ccn1", "human mGluR1 (Homo sapiens (Human))", 0),
    ("COCc1cn(C2=NCC(=O)N3CCc4c(cccc4-c4ncc(C)s4)C3=C2)cn1", "human mGluR1 (Homo sapiens (Human))", 73),
    ("COc1cccc2c1CCN1C(=O)CN=C(c3cnc4c(c3)OCCN4C)C=C21 [Example 36a]", "human mGluR1 (Homo sapiens (Human))", 1),
    ("Cc1coc(-c2cccc3c2CCN2C(=O)CN=C(n4cnc(C5CC5)c4)C=C32)n1", "human mGluR1 (Homo sapiens (Human))", 56),
]

a = Cc1cnc(-c2cccc3c2CCN2C(=O)CN=C(n4cnc(C5CC5)c4)C=C32)o1
b = CCCc1cccc2c1CCN1C(=O)CN=C(n3cnc(-c4ncco4)c3)C=C21 [Example 88a]
Q. Kindly identify which of a and b has the larger recorded inhibition at 10 µM value. Please identify the chosen entry by its label.
A. a

----------
tested system: human mGluR5a receptors (Homo sapiens (Human))
assay comment: inhibition of glutamate-induced elevation of intracellular calcium in L(tk-) cells expressing human mGluR5a
Type: cell-based
study conditions: LTK; read-out: mGluR5 % inhibition at 2 μM
measurement name: inhibition at 2 µM (%)

# annotated cases, reported inhibition at 2 µM shown
# molecule, unit tag, inhibition at 2 µM
measured = [
    ("CO[C@H](C)c1cn(C2=NCC(=O)N3CCc4c(ccnc4C4CC4)C3=C2)cn1 [Example 110c]", "%", 72),
    ("O=C1CN=C(n2cnc(C3CC3)c2)C=C2c3cccc(-c4cc(C(F)(F)F)n[nH]4)c3CCN12 [Example 99b]", "%", 41),
]

P = O=C1CN=C(n2cnc(C3CC3)c2)C=C2c3cccc(-c4ccc(O)nc4)c3CCN12 [Example 99c]
Q = O=C1CN=C(n2cnc(C(F)F)c2)C=C2c3ccnc(C4CC4)c3CCN12 [Example 110d]
Q. Compare inhibition at 2 µM: is it lower for P or for Q ? Please identify the chosen entry by its label.
A. P
